In this section we review reported % cells in cell cycle phase: S values for a set of substances.
# System: HeLa cells
# EXPERIMENTAL_PROTOCOL: Cell cycle assay in HeLa cells
# Format: cell-based, human
# REPORTED_CONDITIONS: HeLa cells, 150 nM oligomeric compound, 48 hours after treatment; relative to untreated control (UTC=100)
In the oligonucleotide strings, read from the 5' end, every base follows the letter of its sugar. An asterisk marks phosphorothioate; unmarked linkages are phosphodiester. Other units and linkages are bracketed, terminal groups are in braces. A string of capitals states the bases alone. e = 2'-O-(2-methoxyethyl) (MOE); [5mC] = 5-methylcytosine; d = 2'-deoxy (DNA)
READOUT: % cells in cell cycle phase: S (%)

SUBSTANCE	VALUE_OBSERVED
338713 (antisense ACCTCTCAGGAAGACGGACT; all 2'-MOE, all phosphorothioate, methylation of C not given here) [compound 338713]	104
327889 (antisense eG*eT*eG*eG*eT*eA*eA*eT*e[5mC]*e[5mC]*e[5mC]*eT*eG*eG*e[5mC]*eA*eA*eT*eG*eT*eG*eA*eT) [compound 327889]	137
338666 (antisense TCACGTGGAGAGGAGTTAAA; all 2'-MOE, all phosphorothioate, methylation of C not given here) [compound 338666]	136
338836 (antisense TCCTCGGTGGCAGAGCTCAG; all 2'-MOE, all phosphorothioate, methylation of C not given here) [compound 338836]	152
338756 (antisense TGCCCTGCTCAGAGCCCTAG; all 2'-MOE, all phosphorothioate, methylation of C not given here) [compound 338756]	121
338833 (antisense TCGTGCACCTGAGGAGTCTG; all 2'-MOE, all phosphorothioate, methylation of C not given here) [compound 338833]	106
340925 (antisense GTGGTAATCCCTGGCAATGTGAT; sugars from the 5' end e5 d10 e8, all phosphorothioate, methylation of C not given here) [compound 340925]	130
341788 (antisense AGCCAAGCTCAGACGGATCCGA; all 2'-MOE, all phosphorothioate, methylation of C not given here) [compound 341788]	105
328707 (eG*e[5mC]*eA*eA*e[5mC]*dA*dG*dG*d[5mC]*d[5mC]*dT*d[5mC]*dA*dA*dT*eA*eT*e[5mC]*eT*eT) [compound 328707]	134
328780 (antisense eT*eG*eT*e[5mC]*eA*dT*dG*dG*dA*d[5mC]*dA*dG*dG*dA*dT*eG*eA*eA*eT*eA) [compound 328780]	130
341787 (antisense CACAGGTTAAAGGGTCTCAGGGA; all 2'-MOE, all phosphorothioate, methylation of C not given here) [compound 341787]	126
328342 (e[5mC]*eA*eA*eT*eT*dG*d[5mC]*dG*d[5mC]*dT*dA*d[5mC]*dA*dG*dA*eA*e[5mC]*eT*eG*eT) [compound 328342]	115
327944 (antisense eA*eA*eA*eG*eT*eG*eT*e[5mC]*eA*eG*eA*eT*eA*e[5mC]*eG*eG*eT*eG*eT*eG*eG) [compound 327944]	129
340365 (antisense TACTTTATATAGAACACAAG; sugars from the 5' end e5 d10 e5, all phosphorothioate, methylation of C not given here) [compound 340365]	94
328744 (antisense e[5mC]*eG*eG*eA*eT*d[5mC]*d[5mC]*dT*dG*dT*dT*dA*d[5mC]*d[5mC]*dT*e[5mC]*eA*e[5mC]*e[5mC]*eA) [compound 328744]	78
327885 (antisense eA*e[5mC]*eT*eA*e[5mC]*e[5mC]*eT*eG*e[5mC]*eA*e[5mC]*eT*eG*eT*eA*eA*eG*e[5mC]*eA*e[5mC]*eT*eT*eT*eG) [compound 327885]	129
338797 (antisense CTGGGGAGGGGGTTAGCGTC; all 2'-MOE, all phosphorothioate, methylation of C not given here) [compound 338797]	124
328676 (eA*e[5mC]*e[5mC]*eT*e[5mC]*d[5mC]*d[5mC]*dA*dG*d[5mC]*d[5mC]*dA*dA*dT*d[5mC]*e[5mC]*eA*eT*eG*eT; antisense) [compound 328676]	118
328396 (antisense e[5mC]*eT*eG*eG*eT*dT*dG*dG*dG*dT*dA*dT*dG*dA*dG*eA*e[5mC]*eA*eG*eA) [compound 328396]	114
328136 (eA*eA*e[5mC]*eT*eA*e[5mC]*eT*eT*e[5mC]*e[5mC]*eA*eG*eA*eG*e[5mC]*eA*eG*eG*eT*eG*eA; anti-miR) [compound 328136]	133
327901 (antisense eT*eG*eA*eG*e[5mC]*eT*eA*e[5mC]*eA*eG*eT*eG*e[5mC]*eT*eT*e[5mC]*eA*eT*e[5mC]*eT*e[5mC]*eA) [compound 327901]	104

---

Parameter % cells in cell cycle phase S: see the listing below.
# Test system: T47Dp53 cells
# EXPERIMENTAL_PROTOCOL: Cell cycle assay in T47Dp53 cells
# Type: cell-based, human
# REPORTED_CONDITIONS: 150 nM, 48 hours, relative to untreated control
In the oligonucleotide strings, read from the 5' end, every base follows the letter of its sugar. An asterisk marks phosphorothioate; unmarked linkages are phosphodiester. Other units and linkages are bracketed, terminal groups are in braces. A string of capitals states the bases alone. e = 2'-O-(2-methoxyethyl) (MOE); [5mC] = 5-methylcytosine; d = 2'-deoxy (DNA)
READOUT: % cells in cell cycle phase S (%)

SUBSTANCE	READOUT	READOUT_UNIT	VALUE_OBSERVED
25691 (antisense eG*e[5mC]*e[5mC]*eA*eA*dG*dG*d[5mC]*dG*dT*dG*dA*d[5mC]*dA*dT*eG*eA*eT*eA*eT) [compound 25691]	% cells in cell cycle phase S	%	66
328759 (antisense eG*eA*eG*eG*eG*dA*dT*dT*dG*dT*dA*dT*dG*dA*dA*e[5mC]*eA*eT*e[5mC]*eT) [compound 328759]	% cells in cell cycle phase S	%	93
328744 (antisense e[5mC]*eG*eG*eA*eT*d[5mC]*d[5mC]*dT*dG*dT*dT*dA*d[5mC]*d[5mC]*dT*e[5mC]*eA*e[5mC]*e[5mC]*eA) [compound 328744]	% cells in cell cycle phase S	%	59
327905 (antisense e[5mC]*eA*eG*eA*e[5mC]*eT*e[5mC]*e[5mC]*eG*eG*eT*eG*eG*eA*eA*eT*eG*eA*eA*eG*eG*eA) [compound 327905]	% cells in cell cycle phase S	%	80
327902 (antisense eG*eG*e[5mC]*eT*eG*eT*e[5mC]*eA*eA*eT*eT*e[5mC]*eA*eT*eA*eG*eG*eT*e[5mC]*eA*eG) [compound 327902]	% cells in cell cycle phase S	%	98
25690 (antisense eA*eT*e[5mC]*e[5mC]*e[5mC]*dT*dT*dT*d[5mC]*dT*dT*d[5mC]*d[5mC]*dG*d[5mC]*eA*eT*eG*eT*eG) [compound 25690]	% cells in cell cycle phase S	%	108
338769 (antisense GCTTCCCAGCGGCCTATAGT; all 2'-MOE, all phosphorothioate, methylation of C not given here) [compound 338769]	% cells in cell cycle phase S	%	87
328403 (antisense eA*eG*eG*e[5mC]*e[5mC]*dT*dA*dT*dT*d[5mC]*d[5mC]*dT*dG*dT*dA*eG*e[5mC]*eA*eA*eA) [compound 328403]	% cells in cell cycle phase S	%	87

---

# Tested on: T47Dp53 cells
# EXPERIMENTAL_PROTOCOL: Cell cycle assay in T47Dp53 cells
# Format: cell-based, human
# REPORTED_CONDITIONS: 150 nM, 48 hours, relative to untreated control
# Protocol: In further studies, additional cell lines were treated with oligomeric compounds targeted against miRNAs to assess the effects of each oligomeric compound on cell cycling. BJ, B16, T47D, and HeLa cells were cultured and transfected as described above. […] Results of these studies are shown in Table 35, where data are expressed as percentage of cells in each phase relative to the untreated control cells in that phase.
In the oligonucleotide strings, read from the 5' end, every base follows the letter of its sugar. An asterisk marks phosphorothioate; unmarked linkages are phosphodiester. Other units and linkages are bracketed, terminal groups are in braces. A string of capitals states the bases alone. e = 2'-O-(2-methoxyethyl) (MOE); [5mC] = 5-methylcytosine; d = 2'-deoxy (DNA)
Let's look at some substances and their measured % cells in cell cycle phase aneuploid.
READOUT: % cells in cell cycle phase aneuploid (%)

SUBSTANCE	READOUT	VALUE_OBSERVED
338769 (antisense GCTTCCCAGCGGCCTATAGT; all 2'-MOE, all phosphorothioate, methylation of C not given here) [compound 338769]	% cells in cell cycle phase aneuploid	87
25690 (antisense eA*eT*e[5mC]*e[5mC]*e[5mC]*dT*dT*dT*d[5mC]*dT*dT*d[5mC]*d[5mC]*dG*d[5mC]*eA*eT*eG*eT*eG) [compound 25690]	% cells in cell cycle phase aneuploid	144
25691 (antisense eG*e[5mC]*e[5mC]*eA*eA*dG*dG*d[5mC]*dG*dT*dG*dA*d[5mC]*dA*dT*eG*eA*eT*eA*eT) [compound 25691]	% cells in cell cycle phase aneuploid	95
